Parameter inhibition at 30 min, 0.167 % (w/v): see the listing below.
# target: CYP2E1 (Homo sapiens)
# Sequence (P05181 whole entry): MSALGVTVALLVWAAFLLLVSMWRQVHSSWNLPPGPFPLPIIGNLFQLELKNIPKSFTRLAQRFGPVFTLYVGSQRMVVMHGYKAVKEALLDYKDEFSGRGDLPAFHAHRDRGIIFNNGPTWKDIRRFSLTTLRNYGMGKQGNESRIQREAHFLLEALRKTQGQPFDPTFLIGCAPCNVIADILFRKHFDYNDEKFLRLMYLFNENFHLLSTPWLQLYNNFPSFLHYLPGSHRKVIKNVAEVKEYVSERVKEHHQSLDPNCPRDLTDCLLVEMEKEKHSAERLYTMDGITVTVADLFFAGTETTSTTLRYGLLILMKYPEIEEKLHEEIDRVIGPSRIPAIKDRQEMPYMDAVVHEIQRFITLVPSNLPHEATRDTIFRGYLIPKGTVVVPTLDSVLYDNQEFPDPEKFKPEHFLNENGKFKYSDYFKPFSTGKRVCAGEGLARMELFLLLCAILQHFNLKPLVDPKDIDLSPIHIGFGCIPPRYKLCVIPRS
# method summary: Human liver microsomal CYP2E1, chlorzoxazone 6-hydroxylation;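 also: chlorzoxazone added as substrate, 6-hydroxychlorzoxazone formation quantified by LC/MS/MS after 30 min at 37 °C with NADP+ regenerating system, compared against solvent control without test sample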
# run conditions: human, microsomes, pH 7.4
Kindly provide the numeric value in % only, without the unit symbol.

Please review the entries below; each comes with its answer.
[[record]]
molecule = "OC[C@@H](O)[C@@H](O)[C@H](O)[C@@H](O)CO"
result_unit = "%"
number = 16.1

[[record]]
molecule = "CC1CCC(C(C)C)C(O)C1 (stereo not shown)"
result_unit = "%"
number = 30.8

[[record]]
molecule = "OCc1ccccc1"
result_unit = "%"
number = -10.3


Which value of inhibition at 30 min, 0.167 % (w/v) has been reported for CC1=CC(=O)NS(=O)(=O)O1 in the records? 14.5
